# Target of assay: human muscarinic M3 receptor (Homo sapiens, UniProt P20309)
# Construct: expressed in transfected cells; host or cells: CHO (CHO-K1) cells
# Sequence (P20309 whole entry): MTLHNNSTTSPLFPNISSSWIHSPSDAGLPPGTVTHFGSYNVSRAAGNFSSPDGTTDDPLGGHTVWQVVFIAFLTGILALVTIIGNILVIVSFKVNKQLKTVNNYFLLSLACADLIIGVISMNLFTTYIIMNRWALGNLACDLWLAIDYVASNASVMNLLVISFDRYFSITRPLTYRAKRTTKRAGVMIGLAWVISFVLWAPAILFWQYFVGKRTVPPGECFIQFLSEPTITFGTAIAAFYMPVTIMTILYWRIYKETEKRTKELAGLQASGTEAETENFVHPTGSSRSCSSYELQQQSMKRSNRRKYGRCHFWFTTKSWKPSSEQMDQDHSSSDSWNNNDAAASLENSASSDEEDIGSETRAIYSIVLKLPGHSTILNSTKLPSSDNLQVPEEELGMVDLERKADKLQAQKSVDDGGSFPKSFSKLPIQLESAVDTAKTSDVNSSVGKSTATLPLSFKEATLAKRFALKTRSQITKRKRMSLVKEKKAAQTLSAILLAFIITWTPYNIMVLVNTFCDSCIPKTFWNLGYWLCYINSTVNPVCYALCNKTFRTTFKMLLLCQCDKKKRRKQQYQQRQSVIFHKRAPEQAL
# Run description: hM3 competition binding assay (3H-NMS, CHO cell membranes)
# Protocol conditions: CHO cell membranes expressing human M3; 3H-NMS at 5×KD, 24 hr at RT; IC50 corrected by Cheng-Prussoff
Measured endpoint: Ki (pM)

Reference set (3 entries):
O=C(Nc1ccccc1-c1ccccc1)OC1CCN(CCCCCCCCCNCc2ccc(O)c(Cl)c2)CC1 ... 787
O=C(Nc1ccccc1-c1ccccc1)OC1CCN(CCCCCCCCCNCc2ccc(F)c(O)c2)CC1 ... 235
CN(CCCCCCCCCN1CCC(OC(=O)Nc2ccccc2-c2ccccc2)CC1)C(=O)c1cccc(F)c1O ... 1270

1 = CN(CCCCCCCCCN1CCC(OC(=O)Nc2ccccc2-c2ccccc2)CC1)Cc1cc(Cl)c(Cl)cc1O
2 = CN(CCCCCCCCCN1CCC(OC(=O)Nc2ccccc2-c2ccccc2)CC1)Cc1cc(Cl)c(O)c(Cl)c1
3 = CN(CCCCCCCCCN1CCC(OC(=O)Nc2ccccc2-c2ccccc2)CC1)C(=O)c1ccc(O)cc1Cl
Ascending sort, Ki. I'd appreciate it if you listed the labels in the requested order.
2, 3, 1
(2: 220 pM, 3: 628 pM, 1: 1300 pM)
